From: patent US10759796B2

Test: in vitro
Settings: human, Caco-2, pH 7.4
Protocol: Example 28: Caco-2 Permeability Assay The goal of this assay was to evaluate the intestinal absorption potential of drug candidates using Caco-2 cell lines. 1. Prewarm Prewarm HBSS Buffer in 37° C. water bath 2. Sonicate Take compounds from −20° C., sonicate for a few minutes (no less than 1 minute) HBSS buffer with 0.3% DMSO and 5 μM LY: add 150 μL DMSO and 50 μL LY (5 mM) into 50 ml HBSS buffer (pH 7.4). […] 1. Papp values were calculated based on calculated concentrations. […]
parameterMeasured: Papp A→B at 90 min, 10 μM

Solved cases below.
Query block: Which Papp A→B at 90 min, 10 μM value is on record for CN1CCN(c2cccc3nc([C@H]4CCC[C@@H](c5ncccc5Cl)N4)cn23)CC1 (racemic) [Compound I-149] ?
Result block: 10 to 30 ×10⁻⁶ cm/s

Query block: Which Papp A→B at 90 min, 10 μM value is on record for `Cc1cccnc1[C@@H]1CCC[C@H](c2nc3cccc(N4CCN(C)CC4)n3c2Cl)N1` ?
Result block: 10 to 30 ×10⁻⁶ cm/s

Query block: Which Papp A→B at 90 min, 10 μM value is on record for `Cc1cccnc1[C@@H]1CCC[C@H](c2cn3ccccc3n2)N1CCc1cnccn1` ?
Result block: 10 to 30 ×10⁻⁶ cm/s

Query block: Which Papp A→B at 90 min, 10 μM value is on record for `CC(C)c1cccnc1[C@@H]1CCC[C@H](c2cn3c(N4CCN(C)CC4)cccc3n2)N1C` ?
Result block: 0.1 to 10 ×10⁻⁶ cm/s

Query block: Which Papp A→B at 90 min, 10 μM value is on record for `Cc1cccnc1[C@@H]1CCC[C@H](c2cn3c(N4CC5CCC(C4)N5)cccc3n2)N1C` ?
Result block: 0.1 to 10 ×10⁻⁶ cm/s

Query block: Which Papp A→B at 90 min, 10 μM value is on record for `Cc1cccnc1[C@@H]1CCC[C@H](c2cn3c(N4CCN(C5COC5)CC4)cccc3n2)N1C` ?
Result block: 0.1 to 10 ×10⁻⁶ cm/s

Query block: Which Papp A→B at 90 min, 10 μM value is on record for `CO[C@H](c1c([C@H]2CCC[C@@H](c3ncccc3C)N2C)nc2ccccn12)C1CCN(C)CC1` ?
Result block: 0.1 to 10 ×10⁻⁶ cm/s

Query block: Which Papp A→B at 90 min, 10 μM value is on record for `Cc1cccnc1[C@@H]1CCC[C@H](c2cn3c(N4CCNCC4)cccc3n2)N1C` ?
Result block: 0.1 to 10 ×10⁻⁶ cm/s

Continue with the compound presented below.
Query block: Which Papp A→B at 90 min, 10 μM value is on record for `CN1CCN(c2cccc3nc([C@H]4CCC[C@@H](c5ncccc5Cl)N4C)cn23)CC1` ?
Result block: 0.1 to 10 ×10⁻⁶ cm/s

* * *

assay: Mouse brain uptake assay, 0-24 h, 4 time points; format: in vivo; details: male, CD1, plasma, Mouse, 3 mg/kg IV, 4 time points, read-out: t½ (converted)
parameterMeasured: half-life (min)

Query block: Which half-life value is on record for `CN1CCN(c2cccc3nc([C@H]4CCC[C@@H](c5ncccc5Cl)N4C)c(Cl)n23)CC1` ?
Result block: 238

Query block: Which half-life value is on record for `Cc1cccnc1[C@@H]1CCC[C@H](c2nc3cccc(N4CCN(C)CC4)n3c2Cl)N1` ?
Result block: 361

Query block: Which half-life value is on record for Cc1c([C@@H]2CCC[C@H](c3ncccc3Cl)N2)nc2cccc(N3CCN(C)CC3)n12 (stereo in doubt) ?
Result block: 385

Query block: Which half-life value is on record for `Cc1cccnc1[C@@H]1CCC[C@H](c2cn3c(-c4cccnc4)cccc3n2)N1C` ?
Result block: 216

Query block: Which half-life value is on record for `CCOCc1c([C@H]2CCC[C@@H](c3ncccc3Cl)N2C)nc2cccc(N3CCN(C)CC3)n12` ?
Result block: 214

Query block: Which half-life value is on record for `Cc1cccnc1[C@@H]1CCC[C@H](c2cn3c(N4CCN(C)CC4)cccc3n2)N1` ?
Result block: 283

* * *

pIC50: −log10 of the molar value.
Observed pIC50, system Jurkat cells expressing CXCR4 (Homo sapiens (Human), UniProt P61073).

Query block: Which pIC50 value is on record for CCN1CCN(c2cccc3nc([C@H]4CCC[C@@H](c5ncccc5C(C)C)N4C)cn23)CC1 [Compound I-111] ?
Result block: 6.00 to 7.00

Query block: Which pIC50 value is on record for CCOCc1c([C@H]2CCC[C@@H](c3ncccc3C(C)C)N2C)nc2cccc(N3CCN(CC)CC3)n12 [Compound I-59] ?
Result block: 6.00 to 7.00

Query block: Which pIC50 value is on record for CC(C)c1cccnc1[C@@H]1CCC[C@H](c2nc3cccc(N4CCN(C)CC4)n3c2Cl)N1C [Compound I-91] ?
Result block: 6.00 to 7.00

Further cases:
Query block: Which pIC50 value is on record for Cc1cccnc1[C@@H]1CCC[C@H](c2nc3ccccn3c2CCCN2CCOCC2)N1C [Compound I-29] ?
Result block: 7.00 to 11.00

Query block: Which pIC50 value is on record for CN(C)C1CCN(c2cccc3nc([C@H]4CCC[C@@H](c5ncccc5Cl)N4C)cn23)CC1 [Compound I-142] ?
Result block: 7.00 to 11.00

Query block: Which pIC50 value is on record for Cc1cccnc1[C@@H]1CCC[C@H](c2nc3cccc(N4CCN(C)CC4)n3c2C)N1C [Compound I-86] ?
Result block: 7.00 to 11.00

Query block: Which pIC50 value is on record for CN1CC2CCC(C1)N2c1cccc2nc([C@H]3CCC[C@@H](c4ncccc4Cl)N3C)c(CO)n12 [Compound I-134] ?
Result block: 7.00 to 11.00

Query block: Which pIC50 value is on record for CCOCc1c([C@H]2CCC[C@@H](c3ncccc3C)N2C)nc2cccc(N3CCN(C(C)C)CC3)n12 [Compound I-57] ?
Result block: 7.00 to 11.00

Query block: Which pIC50 value is on record for CN1CCN(c2cccc3nc([C@H]4CCC[C@@H](c5ncccc5Cl)N4C)cn23)CC1 [Compound I-82] ?
Result block: 7.00 to 11.00

Query block: Which pIC50 value is on record for Cc1cccnc1[C@@H]1CCC[C@H](c2cn3c(N4CCN(C)CC4=O)cccc3n2)N1 [Compound I-211] ?
Result block: 6.00 to 7.00

Query block: Which pIC50 value is on record for Cc1cccnc1[C@H]1CCC[C@@H](c2nc3cccc(N4CCN(C)CC4)n3c2F)N1C (stereo in doubt) [Compound I-34] ?
Result block: 7.00 to 11.00

Query block: Which pIC50 value is on record for Cc1cccnc1[C@@H]1CCC[C@H](c2cn3ccccc3n2)N1CCc1cnccn1 [Compound I-9] ?
Result block: 7.00 to 11.00

Query block: Which pIC50 value is on record for COc1cccnc1[C@@H]1CCC[C@H](c2nc3cccc(N4CCNC5(CC5)C4)n3c2Cl)N1 [Compound I-175] ?
Result block: ≤ 6.00

Query block: Which pIC50 value is on record for CO[C@H](c1c([C@H]2CCC[C@@H](c3ncccc3C)N2C)nc2ccccn12)C1CCN(C)CC1 [Compound I-104] ?
Result block: 7.00 to 11.00

Query block: Which pIC50 value is on record for CCN1CCN(c2cccc3nc([C@H]4CCC[C@@H](c5ncccc5C)N4C)c(Br)n23)CC1 [Compound I-19] ?
Result block: 7.00 to 11.00

* * *

experiment: in vitro; conditions: human, Caco-2, pH 7.4
Entries annotated with measured Papp B→A at 90 min, 10 μM

Solved cases below.
Query block: Which Papp B→A at 90 min, 10 μM value is on record for Cc1cccnc1[C@@H]1CCC[C@H](c2nc3cccc(N4CCN(C(C)C)CC4)n3c2Cl)N1C [Compound I-92] ?
Result block: 0.1 to 10 ×10⁻⁶ cm/s

Query block: Which Papp B→A at 90 min, 10 μM value is on record for CN1CCN(c2cccc3nc([C@H]4CCC[C@@H](c5ncccc5Cl)N4C)cn23)CC1 [Compound I-82] ?
Result block: 10 to 30 ×10⁻⁶ cm/s

Query block: Which Papp B→A at 90 min, 10 μM value is on record for CCN1CCN(c2cccc3nc([C@H]4CCC[C@@H](c5ncccc5C)N4C)c(COC(C)C)n23)CC1 [Compound I-60] ?
Result block: 10 to 30 ×10⁻⁶ cm/s

Further cases:
Query block: Which Papp B→A at 90 min, 10 μM value is on record for COc1cccnc1[C@@H]1CCC[C@H](c2nc3cccc(N4CCNC5(CC5)C4)n3c2Cl)N1 [Compound I-175] ?
Result block: 10 to 30 ×10⁻⁶ cm/s
